Biological target: T1, TSHR coated onto tubes (human, UniProt P16473 21-764, limits assumed)
T1 construct: whole entry named; also called TSHR coated tubes; thyrotropin receptor
Experiment: TSHR coated tubes, competitor 125I-TSH
Property Name: % inhib of 125I-TSH binding at 0.1 µg/mL

QUERY: Param item = 17D2 IgG (antibody, V domains shown) VH: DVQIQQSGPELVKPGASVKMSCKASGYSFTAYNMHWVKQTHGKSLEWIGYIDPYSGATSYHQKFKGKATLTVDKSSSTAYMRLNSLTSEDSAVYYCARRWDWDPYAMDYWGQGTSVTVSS VL: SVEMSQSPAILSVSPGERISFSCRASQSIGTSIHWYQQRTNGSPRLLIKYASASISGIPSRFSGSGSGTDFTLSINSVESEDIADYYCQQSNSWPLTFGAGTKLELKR ; retrieve measured % inhib of 125I-TSH binding at 0.1 µg/mL.
RESULT: 7%

# credit: patent US8840891
